- target or system: hFXR (Homo sapiens)
- Sequence (Q96RI1 1-486): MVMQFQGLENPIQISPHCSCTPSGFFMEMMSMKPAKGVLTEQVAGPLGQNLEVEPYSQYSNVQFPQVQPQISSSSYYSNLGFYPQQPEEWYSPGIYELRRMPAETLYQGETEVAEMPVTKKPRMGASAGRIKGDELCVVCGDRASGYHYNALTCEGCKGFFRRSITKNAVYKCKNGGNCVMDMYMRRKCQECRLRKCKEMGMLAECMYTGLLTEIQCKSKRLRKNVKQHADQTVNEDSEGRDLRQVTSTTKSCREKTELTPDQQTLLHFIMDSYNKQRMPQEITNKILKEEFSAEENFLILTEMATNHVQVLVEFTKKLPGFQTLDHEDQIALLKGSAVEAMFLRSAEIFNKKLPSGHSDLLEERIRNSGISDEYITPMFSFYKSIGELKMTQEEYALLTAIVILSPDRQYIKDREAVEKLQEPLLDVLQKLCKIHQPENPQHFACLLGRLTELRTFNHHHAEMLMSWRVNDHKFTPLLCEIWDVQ
- Sequence (P19793 1-462 partner): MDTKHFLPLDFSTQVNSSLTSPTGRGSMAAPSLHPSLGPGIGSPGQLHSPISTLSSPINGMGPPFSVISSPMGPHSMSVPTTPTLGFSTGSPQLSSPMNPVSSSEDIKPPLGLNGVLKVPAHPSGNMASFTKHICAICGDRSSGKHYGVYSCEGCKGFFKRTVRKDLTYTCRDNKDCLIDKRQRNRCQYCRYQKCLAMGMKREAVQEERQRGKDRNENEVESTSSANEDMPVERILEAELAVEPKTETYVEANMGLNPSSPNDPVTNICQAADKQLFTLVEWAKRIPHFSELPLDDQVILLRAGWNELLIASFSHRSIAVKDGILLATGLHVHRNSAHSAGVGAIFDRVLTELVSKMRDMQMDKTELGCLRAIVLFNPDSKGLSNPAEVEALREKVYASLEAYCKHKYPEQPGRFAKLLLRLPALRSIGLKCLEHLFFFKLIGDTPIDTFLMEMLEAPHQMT
- experimental details: In Vitro FXR Assay (TK): TK-ECRE-luc reporter in transfected CV-1 cells
- details: 18 hrs, luminescence, maximum efficacy of <25% of the Fexarmine control classified as '+'
pEC50: −log10 of the molar value.
// reported pEC50 per item

Known results for molecules:
- smiles string: "CNC(=O)O[C@H]1CC[C@H](C(=O)N(C[C@H]2CC[C@H](c3ccc(OC)c(C#N)n3)CC2)c2cc(-c3cnc(C4CC4)s3)ccn2)CC1"
  pEC50: "≥ 6.60"
- smiles string: "COc1ccc(C23CCC(CN(c4cccc(-c5cnn(C6CC6)c5)c4)C(=O)[C@H]4CC[C@H](NC(=O)COC(C)=O)CC4)(CC2)CC3)cc1C"
  pEC50: "≥ 6.60"

Let us examine a further case.
COc1ccc([C@H]2CC[C@H](CN(c3cc(-c4cnc(C5CC5)s4)ccn3)C(=O)[C@H]3CC[C@H](CC(=O)O)CC3)CC2)cc1C#N yielded pEC50 of ≥ 6.60

====

- target or system: hFXR (Homo sapiens, UniProt Q96RI1)
- experimental details: In Vitro FXR Assay (TK): TK-ECRE-luc reporter in transfected CV-1 cells
- details: 18 hrs, luminescence, maximum efficacy of <25% of the Fexarmine control classified as '+'
pEC50: −log10 of the molar value.
// reported pEC50 per item

- smiles string: "CNC(=O)O[C@H]1CC[C@H](C(=O)N(C[C@H]2CC[C@H](c3ccc(OC)c(C)n3)CC2)c2cccc(-c3cnn(C(C)(C)C)c3)c2)CC1"
  pEC50: "≥ 6.60"
- smiles string: "COc1ccc([C@H]2CC[C@H](CN(c3cc(-c4coc(C5CC5)n4)ccn3)C(=O)[C@H]3CC[C@H](CN)CC3)CC2)nc1C"
  pEC50: "≤ 6.00"

COc1ccc([C@H]2CC[C@H](CN(c3cc(-c4cnn(C5CC5)c4)ccn3)C(=O)[C@H]3CC[C@H](C(=O)O)CC3)CC2)nc1C yielded pEC50 of ≤ 6.00

CNC1CN(C(=O)O[C@H]2CC[C@H](C(=O)N(C[C@H]3CC[C@H](c4ccc(OC)c(C)c4)CC3)c3cccc(-c4cnn(C5CC5)c4)c3)CC2)C1 yielded pEC50 of ≥ 6.60

COc1ccc([C@H]2CC[C@H](CN(c3cccc(-c4cnn(C5CC5)c4)c3)C(=O)[C@H]3CC[C@H](OC(=O)NCCN(C)C(=O)OC(C)(C)C)CC3)CC2)cc1C yielded pEC50 of ≥ 6.60

COc1ncc([C@H]2CC[C@H](CN(c3cccc(-c4cnn(C5CC5)c4)c3)C(=O)[C@H]3CC[C@H](OC(=O)N4CC(O)C4)CC3)CC2)cc1Cl yielded pEC50 of ≥ 6.60

====

- target or system: hFXR (Homo sapiens)
- experimental details: In Vitro FXR Assay (TK): TK-ECRE-luc reporter in transfected CV-1 cells
- details: 18 hrs, luminescence, maximum efficacy of <25% of the Fexarmine control classified as '+'
- Procedure: CV-1 cells were seeded at a density of 2,000,000 cells in a T175 flask with DMEM+10% charcoal double-stripped FBS and incubated at 37° C. in 5% CO2 for 18 h (O/N). After 18 h of incubation, the medium in the T175 flask was changed with fresh DMEM+10% charcoal super-stripped serum. […] Compounds were serially diluted in DMSO and added to transfected CV-1 cells. […] The next day cells were lysed and examined for luminescence.
// reported EC50 per item

- smiles string: "COc1ccc([C@H]2CC[C@H](CN(c3cc(-c4cnc(C5CC5)s4)ccn3)C(=O)[C@H]3CC[C@H](OC(=O)N4CC(O)C4)CC3)CC2)nc1C"
  EC50: "≤ 250 nM"
- smiles string: "CCOC(=O)C[C@H]1CC[C@H](C(=O)N(C[C@H]2CC[C@H](c3ccc(OC)c(C)n3)CC2)c2cccc(-c3cnn(C4CC4)c3)c2)CC1"
  EC50: "≤ 250 nM"
- smiles string: "COc1ccc([C@H]2CC[C@H](CN(c3cc(-c4cnn(C(C)C)c4)ccn3)C(=O)[C@H]3CC[C@H](OC(=O)N4CC(O)C4)CC3)CC2)nc1C#N"
  EC50: "≤ 250 nM"
- smiles string: "COc1ncc(-c2cccc(N(C[C@H]3CC[C@H](c4ccc(OC)c(C)c4)CC3)C(=O)[C@H]3CC[C@H](OC(=O)N(C)C)CC3)c2)s1"
  EC50: "≤ 250 nM"
- smiles string: "COc1ccc([C@H]2CC[C@H](CN(c3cccc(-c4cnc(C5CC5)s4)c3)C(=O)[C@H]3CC[C@H](OC(=O)NCCO)CC3)CC2)cc1C"
  EC50: "≤ 250 nM"

Let us examine a further case.
COc1ccc([C@H]2CC[C@H](CN(c3cc(-c4coc(C5CC5)n4)ccn3)C(=O)[C@H]3CC[C@H](OC(=O)N4CCN(C(C)C)CC4)CC3)CC2)nc1C yielded EC50 of ≤ 250 nM

====

- target or system: hFXR (Homo sapiens, UniProt Q96RI1)
- experimental details: In Vitro FXR Assay (TK): TK-ECRE-luc reporter in transfected CV-1 cells
- details: 18 hrs, luminescence, maximum efficacy of <25% of the Fexarmine control classified as '+'
// reported EC50 per item

COc1ccc([C@H]2CC[C@H](CN(c3cccc(-c4cnn(C(C)C)c4)c3)C(=O)[C@H]3CC[C@H](OC(=O)N4CC(O)C4)CC3)CC2)nc1C yielded EC50 of ≤ 250 nM

COc1ccc([C@H]2CC[C@H](CN(c3cc(-c4cnn(C(C)C)c4)ccn3)C(=O)[C@H]3CC[C@H](NC(C)=O)CC3)CC2)cc1C yielded EC50 of ≤ 250 nM

COc1ccc(C23CCC(CN(c4cc(-c5cnn(C6CC6)c5)ccn4)C(=O)[C@H]4CC[C@H](C(=O)O)CC4)(CC2)CC3)cc1C yielded EC50 of ≤ 250 nM

====

- target or system: hFXR (Homo sapiens)
- Sequence (Q96RI1 1-486): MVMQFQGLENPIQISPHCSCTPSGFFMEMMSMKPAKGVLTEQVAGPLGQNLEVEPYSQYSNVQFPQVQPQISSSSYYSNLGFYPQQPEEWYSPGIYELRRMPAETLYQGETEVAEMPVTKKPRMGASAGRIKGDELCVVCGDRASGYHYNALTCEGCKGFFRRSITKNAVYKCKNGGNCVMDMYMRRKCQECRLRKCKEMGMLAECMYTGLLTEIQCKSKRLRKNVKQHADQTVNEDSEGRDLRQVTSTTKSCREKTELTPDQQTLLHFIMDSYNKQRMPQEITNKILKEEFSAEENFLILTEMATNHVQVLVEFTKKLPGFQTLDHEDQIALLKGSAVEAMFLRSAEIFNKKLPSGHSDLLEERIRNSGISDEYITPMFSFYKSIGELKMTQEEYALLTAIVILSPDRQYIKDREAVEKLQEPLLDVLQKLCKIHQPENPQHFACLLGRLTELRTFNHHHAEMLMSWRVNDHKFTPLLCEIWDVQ
- Sequence (P19793 1-462 partner): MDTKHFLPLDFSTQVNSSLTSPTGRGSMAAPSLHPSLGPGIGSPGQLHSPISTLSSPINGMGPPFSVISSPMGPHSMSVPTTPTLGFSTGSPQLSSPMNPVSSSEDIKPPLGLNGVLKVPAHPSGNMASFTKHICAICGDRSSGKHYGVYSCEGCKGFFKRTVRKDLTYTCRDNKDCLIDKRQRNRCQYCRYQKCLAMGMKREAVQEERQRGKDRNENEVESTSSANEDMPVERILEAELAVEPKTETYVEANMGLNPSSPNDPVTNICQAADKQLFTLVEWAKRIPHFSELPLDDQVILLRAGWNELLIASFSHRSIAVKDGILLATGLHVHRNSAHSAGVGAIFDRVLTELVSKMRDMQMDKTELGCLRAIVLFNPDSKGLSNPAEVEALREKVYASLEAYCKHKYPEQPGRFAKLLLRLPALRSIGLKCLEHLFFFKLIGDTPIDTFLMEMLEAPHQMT
- experimental details: In Vitro FXR Assay (TK): TK-ECRE-luc reporter in transfected CV-1 cells
- details: 18 hrs, luminescence, maximum efficacy of <25% of the Fexarmine control classified as '+'
- Description: CV-1 cells were seeded at a density of 2,000,000 cells in a T175 flask with DMEM+10% charcoal double-stripped FBS and incubated at 37° C. in 5% CO2 for 18 h (O/N). After 18 h of incubation, the medium in the T175 flask was changed with fresh DMEM+10% charcoal super-stripped serum. […] Compounds were serially diluted in DMSO and added to transfected CV-1 cells. […] The next day cells were lysed and examined for luminescence.
// reported EC50 per item

Known results for compounds:
- smiles string: "COc1ccc([C@H]2CC[C@H](CN(c3cccc(-c4cnc(C5CC5)s4)c3)C(=O)[C@H]3CC[C@H](NC(=O)CS(C)(=O)=O)CC3)CC2)cc1C"
  target or system: "hFXR (Homo sapiens)"
  test readout: "EC50"
  reported measurement: "≤ 250 nM"
- smiles string: "CN(C)c1ccc(C23CCC(CN(c4cccc(-c5coc(C6CC6)n5)c4)C(=O)[C@H]4CC[C@H](OC(=O)NCCO)CC4)(CC2)CC3)cn1"
  target or system: "hFXR (Homo sapiens)"
  test readout: "EC50"
  reported measurement: "≤ 250 nM"

Let us examine a further case.
COc1ccc(CO[C@H]2CC[C@H](C(=O)N(C[C@H]3CC[C@H](c4ccc(OC)c(C)c4)CC3)c3cccc(-c4cnc(OC)s4)c3)CC2)cc1 yielded EC50 of ≥ 1000 nM
